molecular target: T1, human folate receptor alpha (hFRα), recombinant protein (human, UniProt P15328 25-233); test: BLI, Avi-biotinylated FRα on streptavidin biosensors, VHH 100 nM
T1 construct: Bought recombinant proteins (His-tagged, or biotinylated via Avi-tag, e.g. AcroBiosystems FO1-H82E2, F01-H52H1); also called hFOLR1; huFOLR1
T1 sequence (P15328 25-233 limits assumed): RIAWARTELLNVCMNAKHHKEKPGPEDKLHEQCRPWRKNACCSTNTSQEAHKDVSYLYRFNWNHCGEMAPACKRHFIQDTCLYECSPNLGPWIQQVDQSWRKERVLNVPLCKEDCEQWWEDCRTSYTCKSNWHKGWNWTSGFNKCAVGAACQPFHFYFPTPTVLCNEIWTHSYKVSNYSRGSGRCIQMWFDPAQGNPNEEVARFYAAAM
Recorded koff values for a group of binders are listed next.
outcomeMeasure: koff

INSERT INTO results (binder, outcomemeasure, measvalue) VALUES
  ('P01500008: 2MFR67(Q1E, Q5V, Q108L)-FLAG3-HIS6 (VHH, Entry includes the tags; also called 2MFR67-Flag3-His6) VHH: EVQLVESGGGLVQAGGSLRLSCAASGSGFSGMIMGWYRQAPGKQRELVATVTSHGTTNYADSVKGRFTISREDSKNTVLLQMNSLKPEDTAVYYCNAHFPGIYWGKGTLVTVSS', 'koff', '0.00304 s⁻¹'),
  ('P01500004: 2HF042(Q1E, Q5V, Q108L)-HIS6 (VHH, Entry includes the tag; also called 2HFO42 (P01500004); Nb42) VHH: EVQLVESGGGLVQAGGSLRLSCAASGSGFSGMIMGWYRQVPGKQRELVATVTSHGTTNYADSVKGRFTISRDNAKNTVLLQMNSLKPEDTAVYYCNAHFPGIYWGKGTLVTVSS', 'koff', '0.0102 s⁻¹'),
  ('P01500001 = humanised variant 1 (h1) 2HFO42-His6: 2HF042(Q1E, Q5V, A14P, V40A, L79Y, K83R, Q108L)-HIS6 (VHH, Entry includes the tag; also called P0150001; humanised 2HFO42) VHH: EVQLVESGGGLVQPGGSLRLSCAASGSGFSGMIMGWYRQAPGKQRELVATVTSHGTTNYADSVKGRFTISRDNAKNTVYLQMNSLRPEDTAVYYCNAHFPGIYWGKGTLVTVSS', 'koff', '0.011 s⁻¹'),
  ('P01500007: 2HF042(Q1E, Q5V, A14P, V40A, L79Y, K83R, K105Q, Q108L)-FLAG3-HIS6 (VHH, Entry includes the tags) VHH: EVQLVESGGGLVQPGGSLRLSCAASGSGFSGMIMGWYRQAPGKQRELVATVTSHGTTNYADSVKGRFTISRDNAKNTVYLQMNSLRPEDTAVYYCNAHFPGIYWGQGTLVTVSS', 'koff', '0.0164 s⁻¹');

Values from patent US20250304677A1
